- Test system: Zymoseptoria tritici (SEPTTR-184)
- testDescription: Efficacy of target gene fragments (MgCytB dsRNA tiles) on wheat plants, SEPTTR-184
- Type: in vivo
- particulars: 3DC (curative)
Measured ED50 SEPTTR-184 3DC accompanies every entry in the list below.

molecule: MgCytB-T5: 172 bp dsRNA of Zymoseptoria CytB region T5, location 173-344 (SEQ ID NO:8) (nucleic acid, listed as Zymoseptoria tritici, complementary strand of dsRNA) TATCTGAAGCATTTAACTCAGTTGAACACATAATGAGAGATGTAAACAATGGATGACTTATACGTTATCTTCACTCTAATACTGCTTCAGCTTTCTTCTTTTTAGTTTACCTGCACGTGGGTAGAGGGTTATACTACGGGTCATACAAAGCCCCTAGAACATTAACATGAAC
val: 4.605 ppm

Exam item: Reported ED50 SEPTTR-184 3DC for MgCytB-T1: 267 bp dsRNA of Zymoseptoria CytB region 1, location 364-630 (SEQ ID NO:4) (nucleic acid, listed as Zymoseptoria tritici, complementary strand of dsRNA) GTTCTGATGATGGCAACCGCATTCTTAGGGTATGTATTACCTTATGGTCAAATGTCTTTATGAGGAGCAACAGTTATAACTAACTTATTGAGTGCAATACCTTGAGTTGGACAAGACATAGTTGAATTCGTATGAGGTGGATTTTCTGTTAACAATGCAACATTGAACAGATTCTTTGCTCTACATTTCGTTTTACCGTTTGTGTTAGCTGCATTAGTTTTAATGCATCTAATAGCTTTACACGATACAGCGGGTTCAGGAAATCCT : what is it?
Marked response: <3.125 ppm

Values from patent US10392620B2
